# assay.overview: reversal of MRP1-mediated doxorubicin resistance, pilot screen, H69AR cells, doxorubicin co-treatment (AID 601)
# settings: H69AR cells + 2 uM doxorubicin, CellTiter-Glo, 72 h; at 10 µM; stronger effect = higher value
readout.name: differential viability (reversal) (%)
The response must be a number in % with no trailing unit.

{"compound": "Cc1ccc(SCCC(=O)N(C)C)cc1", "differential viability (reversal) / %": 18.3}
{"compound": "Cc1ccc(OCC(O)Cn2c(NCCc3ccccc3)nc3c2c(=O)[nH]c(=O)n3C)cc1 (stereo unspecified)", "differential viability (reversal) / %": -5.09}
{"compound": "CCOc1ccccc1NC(=O)CSc1nnc2c(CC)c(C)nc(N)n12", "differential viability (reversal) / %": -3.08}
{"compound": "CCN1C(=O)C(C(=O)Nc2ccc(OC)cc2)C2CC1(C)Oc1ccccc12 (stereo unspecified)", "differential viability (reversal) / %": -10}
{"compound": "O=c1c2ccccc2nc(SCc2cn3ccsc3n2)n1-c1ccc(F)cc1", "differential viability (reversal) / %": -13.3}
{"compound": "Cc1oc2cc3c(C(=O)OCCN(C)C)c(C)oc3cc2c1C(=O)OCCN(C)C", "differential viability (reversal) / %": -16.8}
{"compound": "CCOC(=O)c1c2n(c3ccc(O)cc13)CCCCC2", "differential viability (reversal) / %": 1.8}
{"compound": "C/C(Cl)=C/Cn1c(SCc2ccc(Cl)cc2)nc2c1c(=O)[nH]c(=O)n2C", "differential viability (reversal) / %": -6.12}

Request: Input Cc1[nH]nc2c1C(CCc1ccccc1)C(C#N)=C(N)O2 (stereo unspecified) , output reported differential viability (reversal).
Response: -2.73

Request: Input CCCCCCC(=O)c1c(C)[nH]c(C(=O)OCC)c1C , output reported differential viability (reversal).
Response: 6.9

Request: Input COc1ccc(NC(=O)c2oc3ccc(S(=O)(=O)N4CCC5(CC4)OCCO5)cc3c2C)cc1 , output reported differential viability (reversal).
Response: -5.32

* * *

# viability values compiled below
# assay.overview: reversal of MRP1-mediated doxorubicin resistance, pilot screen, H69AR cells, doxorubicin co-treatment (AID 601)
# settings: H69AR cells, CellTiter-Glo, 72 h; compound alone cytotoxicity; at 10 µM
The response must be a number in % with no trailing unit.

Example results:
{"compound": "O=C(NCC12CC3CC(C1)CC(CNC(=O)N1CCCC1)(C3)C2)N1CCCC1", "viability / %": 84.8}
{"compound": "CCCNC(=O)C1CN(S(=O)(=O)c2ccccc2)CCN1S(=O)(=O)c1ccccc1 (configuration not stated)", "viability / %": 99.2}
{"compound": "CC(O)Cn1cnc2c1c(=O)n(C)c(=O)n2C (configuration not stated)", "viability / %": 95.8}
{"compound": "Cc1cn(C2CC3OCC3O2)c(=O)[nH]c1=O (configuration not stated)", "viability / %": 94.2}
{"compound": "CN(CC(=O)N1CCN(C2CCCCC2)CC1)S(=O)(=O)c1cccc2nsnc12", "viability / %": 97.2}
{"compound": "c1ccc(CSCc2cn3ccsc3n2)cc1", "viability / %": 99.1}
{"compound": "COc1ccc(-c2[nH]nc3c2C(c2ccncc2)C(C#N)=C(N)O3)cc1 (configuration not stated)", "viability / %": 92.2}
{"compound": "Cc1cc(NC(=O)c2ccc(Cl)cc2)no1", "viability / %": 87.5}
{"compound": "CC(=O)C1=C(C)OC(N)=C(C#N)C1c1ccncc1 (configuration not stated)", "viability / %": 93.2}
{"compound": "O=S(=O)(c1ccc(S(=O)(=O)N(Cc2ccco2)Cc2ccccc2Cl)cc1)N1CCCC1", "viability / %": 76.6}

Consider the record given below.
Request: Input Cc1cc(=O)oc(C)c1C(=O)O , output reported viability.
Response: 92

* * *

# assay.overview: reversal of MRP1-mediated doxorubicin resistance, pilot screen, H69AR cells, doxorubicin co-treatment (AID 601)
# settings: H69AR cells + 2 uM doxorubicin, CellTiter-Glo, 72 h; at 10 µM; stronger effect = higher value
Active and inactive are the calls of the source.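 How the source made its calls: active means viability loss from added drug above about 55%, and viability with drug at most 40%, in both replicates (limit read from the data, passing the limit was not always enough); inconclusive means both conditions met in only one replicate; inactive means neither replicate meets both conditions.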
readout.name: differential viability (reversal)

Example results:
{"compound": "CCOc1ccccc1N1CCN(c2nc3ccccc3nc2C(C#N)C(=O)OC)CC1 (stereo unspecified)", "differential viability (reversal)": "-4.64% (inactive)"}
{"compound": "CN(C)c1nc(Oc2ccc(N)cc2)nc(N(C)C)n1", "differential viability (reversal)": "-6.47% (inactive)"}
{"compound": "Cc1noc(C)c1CSc1nnc2scc(-c3ccc(Cl)cc3)n12", "differential viability (reversal)": "4.96% (inactive)"}
{"compound": "CC(=O)OCC(=O)[C@@]1(O)CC[C@H]2[C@@H]3CCC4=CC(=O)CC[C@]4(C)[C@H]3[C@@H](O)C[C@@]21C", "differential viability (reversal)": "2.38% (inactive)"}
{"compound": "COC(=O)c1c(NC(=O)CCc2ccc(C)o2)sc(C)c1C", "differential viability (reversal)": "1.81% (inactive)"}

Consider the record given below.
Request: Input CCC(=O)c1ccc(O)cc1 , output reported differential viability (reversal).
Response: -3.6% (inactive)

* * *

# assay.overview: reversal of MRP1-mediated doxorubicin resistance, pilot screen, H69AR cells, doxorubicin co-treatment (AID 601)
# settings: H69AR cells + 2 uM doxorubicin, CellTiter-Glo, 72 h; measured here: viability with 2 uM doxorubicin; at 10 µM; stronger effect = lower value
Rule for this label: criterion met means viability is less than 90%; criterion not met means viability is at least 90%.

Solved cases (5 shown):
{"molecule": "CN1CCN(C(=O)CN(Cc2ccc(Cl)cc2)S(C)(=O)=O)CC1", "label.class": "criterion not met"}
{"molecule": "O=C(Nc1ccc2[nH]c3c(c2c1)CCCC3)c1ccco1", "label.class": "criterion met"}
{"molecule": "CC(=O)C(Sc1ncnc2c1nnn2-c1ccc(F)cc1)C(=O)N(C)C (stereo not drawn)", "label.class": "criterion met"}
{"molecule": "CCOc1cccc(-n2nnnc2-c2ccc(OC)cc2)c1", "label.class": "criterion met"}
{"molecule": "C=CCSc1nnc(-c2ccc(Cl)cc2Cl)o1", "label.class": "criterion met"}

Request: Please state whether viability is below 90% for Cc1cc2oc(C(=O)NC3CCS(=O)(=O)C3)c(C)c2cc1C (stereo not drawn)
Response: criterion met

Request: Please state whether viability is below 90% for O=C(NC1CCCC1)C(c1cccs1)N(C(=O)c1ccno1)c1ccccc1 (stereo not drawn)
Response: criterion met

* * *

# assay.overview: 384-well plate pilot, post-Golgi transport modulator project, inhibition of yeast transport mutant growth (AID 636)
# settings: absorbance 615 nm, about 18 h, stronger effect = higher value
readout.name: inhibition (%)
The response must be a number in % with no trailing unit.

{"molecule": "Cc1ccc(C)c(-n2nnnc2SCC(=O)NCCC2=CCCCC2)c1", "inhibition [%]": -4.66}
{"molecule": "O=C(O)c1cccc(COCC(F)(F)C(F)F)c1", "inhibition [%]": -0.41}
{"molecule": "Cc1nc(Sc2cccn2C)c(C(F)(F)F)c(=O)[nH]1", "inhibition [%]": -6.58}
{"molecule": "CC1(C)CC(=O)CC(C)(C)N1OC(=O)c1ccccn1", "inhibition [%]": -2.3}
{"molecule": "CCOC(=O)c1ccc(NS(=O)(=O)c2ccc(SC)cc2)cc1", "inhibition [%]": -7.11}

Request: Input Fc1ccc(C2C3=C(Nc4ncnn42)c2ccccc2OC3c2ccncc2)cc1 (centres undefined) , output reported inhibition.
Response: -2.11

* * *

# assay.overview: reversal of MRP1-mediated doxorubicin resistance, pilot screen, H69AR cells, doxorubicin co-treatment (AID 601)
# settings: H69AR cells, CellTiter-Glo, 72 h; compound alone cytotoxicity; at 10 µM
# viability values compiled below
Could you kindly put the unit after your number?

Request: Input O=C(C1CCN(C2CC(=O)N(c3ccc(F)cc3)C2=O)CC1)N1CCOCC1 (stereo not drawn) , output reported viability.
Response: 101%

Request: Input CCCS(=O)(=O)N1CCC(C(=O)NCCN2CCCC2)CC1 , output reported viability.
Response: 94.9%

Request: Input COC(=O)c1c(N)sc(C(=O)N2CCOCC2)c1C , output reported viability.
Response: 97.7%

Request: Input CN1C(=O)c2oc3ccccc3c(=O)c2C1c1ccccn1 (stereo not drawn) , output reported viability.
Response: 106%

Request: Input COc1ccc(Cn2c(=O)[nH]c3cc(C(=O)NCCCN4CCCC4)ccc3c2=O)cc1 , output reported viability.
Response: 92.3%

Request: Input Cc1ccc(-n2c(SCC3CCCCO3)nnc2-c2ccco2)cc1 (stereo not drawn) , output reported viability.
Response: 91.4%

Request: Input COc1ccc(-c2nnc(SCc3nnc(-c4ccc(Cl)cc4)o3)n2-c2ccccc2)cc1 , output reported viability.
Response: 84.3%

The measurements presented in this section are drawn from PubChem BioAssay.
